Cited source: ChEMBL document CHEMBL4513216

Documented cytotoxicity at 10 µM across a set of molecules
assay: Toxicity liver stage against HepG2, at 10uM; format: cell-based; set-up: test concentration 10 uM, cell line HepG2-A16-CD81EGFP; conditions: human, HepG2-A16-CD81EGFP cells; read-out: INHIBITION
measuredProperty: cytotoxicity at 10 µM (%)

molecule: c1ccc(O[C@H]2COCCN(Cc3c[nH]c4ccccc34)C2)cc1
recordedNumber: -0.347
--
molecule: COC(=O)c1cc(OC)c(OC)cc1NCc1c(C)noc1C
recordedNumber: 4
--
molecule: Cc1ncnc2c1CCN(c1cc(C(F)(F)F)ncn1)CC2
recordedNumber: -2.96
--
molecule: Cc1cccc(CN2CCc3[nH]nc(C(=O)N4CCNC(=O)C4)c3C2)n1
recordedNumber: 18.2
--
molecule: NCC1CCCCN1C(=O)Cc1cccc(Br)c1 (centres undefined)
recordedNumber: 0.907
--
molecule: Cc1ccc(-c2cc(CN3CCc4cnc(C)nc4C3)on2)cc1
recordedNumber: 4.88
--
molecule: CC(NC(=O)N1CCC(CO)CC1)c1csc2ccccc12 (centres undefined)
recordedNumber: -5.4
--
molecule: Cc1noc(C)c1CNCC1COCc2c(-c3ccoc3)nnn2C1 (centres undefined)
recordedNumber: 8.85
--
molecule: c1ccc(CCN2CCN(c3ccc4nncn4n3)CC2)nc1
recordedNumber: -7.93
--
molecule: Cc1ccc(CN2CCOCC2)cc1NC(=O)c1ccsc1
recordedNumber: 3.22
--
molecule: CC(C)CC(=O)N1CC(=O)N(CCc2ccccc2)CC(O)C1 (centres undefined)
recordedNumber: -6.4
--
molecule: CN(CC(O)C(F)(F)F)C(=O)Nc1cccc(C(F)F)c1 (centres undefined)
recordedNumber: 5.46
--
molecule: O=C(Nc1ccccc1F)C1CSCN1C(=O)CCc1ccco1 (centres undefined)
recordedNumber: -4.31
--
molecule: CSCc1cccc(NC(=O)N2CCC(N3CC=CC3)C2)c1 (centres undefined)
recordedNumber: -1.83
--
molecule: Cc1cc(C)c2ncn(CCOCCO)c(=O)c2c1
recordedNumber: 8.17
--
molecule: c1ccc(-c2cc(CNCCCN3CCCCC3)c3nnnn3c2)cc1
recordedNumber: -30.6
--
molecule: Cc1ccc(CN2CCN(c3nc4c(s3)c(C)nn4C)C(C)C2=O)cc1 (centres undefined)
recordedNumber: 76.5
--
molecule: O=C1N(CCCc2ccccc2)CCCC1(O)CNCC1CCCCC1 (centres undefined)
recordedNumber: -0.106
--
molecule: Cc1cc(N2CCN(C(=O)c3cc(Cl)c[nH]3)CC2)nc(C)n1
recordedNumber: -2.43
--
molecule: Cn1cc(CN2CCCCC2c2ccc(-c3cccc(Cl)c3)nc2)cn1 (centres undefined)
recordedNumber: -8.51
--
molecule: CN(C)c1cc(C2CCCN(S(=O)(=O)c3cn(C)cn3)C2)ccn1 (centres undefined)
recordedNumber: -14.4
--
molecule: N#Cc1cccc(-c2ncnn2CC2(O)CCCCC2)c1
recordedNumber: 8.83
--
molecule: CN(C)c1ccc(C(=O)NCc2ccc(N3CCOCC3)cc2)cn1
recordedNumber: 6.03
--
molecule: CC(C)S(=O)(=O)NCc1cccnc1Oc1ccc(F)cc1F
recordedNumber: 5.98
